system: HOP-62 NSCLC; test: NCI tumour cell line growth inhibition, 48 h; in the data active means GI50 below about 0.43 µM; inactive means the rest
One label from this list, please: active, inactive

Look over these answered cases.
compound	cat
CCCCCCCCCCCCCCCCCC1=NCCN1CCOC1=C(Cl)C(=O)c2ccccc2C1=O	inactive
CN[C@@H](C)C(=O)N[C@H](C(=O)N1CCC[C@H]1C(=O)Nc1sc(-c2ncco2)nc1-c1ccccc1)C1CCCCC1	inactive
OCc1ccc(N2CCCC2c2ccccc2)cc1Cl (centres undefined)	inactive
O=C1/C(=C/c2ccccc2[N+](=O)[O-])Cc2ccccc21	inactive

What did the test return for CN1CCN(C(=O)c2cc(-c3ccc4ncnc(N5CCc6cc(F)c(Cl)cc65)c4c3)cnc2N)CC1 ? active

Please answer likewise for O=C1C(=C([O-])c2ccccc2)C(=O)c2ccccc21.O=C1C(=C([O-])c2ccccc2)C(=O)c2ccccc21.[Fe+2] inactive

Also check O=C(OCc1ccc2ccccc2n1)c1cn(C2CC2)c2cc(N3CCN(Cc4ccc5ccccc5n4)CC3)c(F)cc2c1=O inactive

Also, COc1cc2c3c(n(C)c(=O)c2cc1OC)-c1cc2c(cc1/C3=C\CCCCN1C(=O)c3ccccc3C1=O)OCO2 please. inactive

Now the compound O=C1NC(=O)C(N2C(=O)c3ccccc3C2=O)CC1O (centres undefined) inactive

----------
Exercise: for every item that follows, state its recorded TGI.
test system: K-562 leukemia; experiment: NCI tumour cell line growth inhibition, 48 h

Examples from the recorded data:
compound	TGI
O=C(O)c1ccc(C2COc3ccc(Cl)cc3C2)cc1 (centres undefined)	> 100 µM
CC1=NC(=Cc2cccc(Cl)c2)C(=O)N1n1c(-c2ccccc2)nc2ccccc2c1=O	> 100 µM
O=C1c2ccccc2-c2cc([N+](=O)[O-])c([N+](=O)[O-])cc21	8.04 µM
C=CCN1C(=O)/C(=C/c2cccs2)N=C1SC/C=C/C	> 100 µM
COc1ccc(-c2[nH]c3ccccc3c2-c2ccc(OC)cc2)cc1	10.4 µM
COC(=O)c1onc(-c2c(OC)cc(OC)cc2OC)c1C(=O)OC	> 100 µM
O=C1C(Cl)=C(Nc2ccc(S(=O)(=O)O)cc2)C(=O)c2ccccc21	94.2 µM
Cc1c(/C=N/N=C/c2[nH]c(C(=O)OC(C)(C)C)c(C)c2C)[nH]c(C(=O)OC(C)(C)C)c1C	> 100 µM

Batch lookup, TGI per entry.
1. CC(C)(C)OC(=O)N/N=C(/N)Cc1ccc(Cl)cc1
2. CCC(=O)C12OC3OC(C)(C)OC3C1OC(C)(C)O2 (centres undefined)

1. > 100 µM
2. > 100 µM

----------
system: SNB-75 CNS; assay: NCI tumour cell line growth inhibition, 48 h
Where a SMILES comes first, the peptide text is derived from it. The star is where a group is joined. Boc = CC(C)(C)OC(=O)*
readout-type: TGI

In the examples that follow, each entry is paired with its recorded TGI.
compound	TGI
O=C1c2ccccc2-c2cc([N+](=O)[O-])c([N+](=O)[O-])cc21	3.39 µM
C[N+](C)(C)CCc1ccccc1	> 100 µM
CC(C)(C)OC(=O)N/N=C(/N)Cc1ccc(Cl)cc1	> 100 µM
CNCCCNCCCCNCCCN1C(=O)c2ccc3c4c(ccc(c24)C1=O)C(=O)N(CCCNCc1ccccc1OC)C3=O	13.3 µM
O=C1C(Cl)=C(Nc2ccc(S(=O)(=O)O)cc2)C(=O)c2ccccc21	> 100 µM

Provide reported TGI for each item, in the same order as listed.
1. Clc1ccc(Nc2nc3ccccc3nc2-c2cccs2)cc1Cl
2. COC(=O)c1onc(-c2c(OC)cc(OC)cc2OC)c1C(=O)OC
3. Cc1ccccc1-n1c(=O)c2ncn(C3CCCO3)c2n(-c2ccccc2C)c1=S (stereo not given)
4. O=C1NC(=O)C(N2C(=O)c3ccccc3C2=O)CC1O (stereo not given)
5. Cc1cc(C)c(-n2[nH]c(=O)n(C)c2=O)c(C)c1
6. COc1cccc(OC(=O)c2ccc(C(F)(F)F)nc2Nc2cc(Cl)ccc2C)c1

1: > 100 µM; 2: > 100 µM; 3: > 100 µM; 4: > 100 µM; 5: > 100 µM; 6: > 100 µM

Record TGI per entry; entries follow.
1. CC(C)(C)OC(=O)NC(Cc1ccc(O)cc1)C(=O)N1CCCC1C(=O)O (stereo not drawn) (Boc-Tyr-Pro-OH; configuration not given here)
2. CCOc1ccccc1C(=O)N1CCN(c2cc(Cl)cc(Cl)c2)CC1

> 100 µM
14.3 µM

----------
tested on: MDA-MB-435; experiment: NCI tumour cell line growth inhibition, 48 h
Values of TGI greater than or equal to 3 µM map to class 1; values below map to class 0.

Study these solved cases before continuing.
molecule	cat
O=c1[nH]cc(-c2c[nH]c3ccccc23)nc1-c1c[nH]c2ccccc12	class 1
c1cnn2ncc(-c3ccnc(NCCCN4CCOCC4)n3)c2c1	class 1
O=C1c2cccnc2C(=O)c2c1c(C(=O)NCCCN1CCCCC1)c1ccccn21	class 0
CC1(C)C=Cc2c(cc(O)c3c(=O)c4cc(Cl)ccc4[nH]c23)O1	class 1
CCOc1ccccc1C(=O)N1CCN(c2cc(Cl)cc(Cl)c2)CC1	class 0

Read the next record carefully.
Test whether the molecule O=C(O)C12C3CCC(CC3)C1(C(=O)O)C1CCC2C1 (stereo not drawn) records TGI of 3 µM or higher. class 1

----------
tested on: HCC-2998 colon; test: NCI tumour cell line growth inhibition, 48 h
Please go through the items and note down their TGI.
One number for each entry, in µM.

Solved cases (3 shown):
compound	quantity-unit	TGI
CC(C)NCCCn1c(Sc2cc3c(cc2I)OCO3)nc2c(N)ncnc21	µM	11.6
O=C(Nc1nc2ccc([N+](=O)[O-])cc2s1)C(=O)C(C(=O)c1ccccc1F)C1OC(=O)c2ccccc21 (stereo not given)	µM	84.2
C1CCC([PH+](C2CCCCC2)C2CCCCC2[PH+](C2CCCCC2)C2CCCCC2)CC1.[Au].[CH-]1CCCCC1CC1CCCC[N-]1 (stereo not given)	µM	1.49

Form field - read-out: TGI; system: HCC-2998 colon; submitted item: O=C1OCC2=C1C(c1ccc(Cl)c(Cl)c1)c1cc3c(cc1N2CCO)OCCO3 (stereo not given) 4.33

----------
system: HCT-15 colon; assay: NCI tumour cell line growth inhibition, 48 h
Give measured TGI for each item. Keep answers brief.

Example results:
molecule	TGI
O=C1OC(=O)C(=C\c2ccc3c(c2)OCO3)/C1=C/c1ccc2c(c1)OCO2	> 100 µM
Cc1c(/C=N/N=C/c2[nH]c(C(=O)OC(C)(C)C)c(C)c2C)[nH]c(C(=O)OC(C)(C)C)c1C	> 100 µM
O=C1c2c(c3c4ccccc4[nH]c3c3ccc4ccccc4c23)C(=O)N1CCN1CCNCC1	2.98 µM
NC(N)=NCC[C@H](NC(=O)OCCCCCn1ccc(=O)[nH]c1=O)C(=O)O	> 100 µM
CNC(=O)C1(N)c2ccccc2C=Cc2ccccc21	> 100 µM

Lab note: each molecule below needs its TGI filled in.
1. CC(=O)C1C(=O)C(=O)N(c2cccc([N+](=O)[O-])c2)C1=O (stereo not drawn)
2. COc1cc2c3c(n(C)c(=O)c2cc1OC)-c1cc2c(cc1/C3=C\CCCCN1C(=O)c3ccccc3C1=O)OCO2
3. C/C(=N\Nc1ccc([N+](=O)[O-])cc1[N+](=O)[O-])c1sc(-n2nc(-c3ccccc3)cc2-c2ccccc2)nc1C
4. O=C1OCC2=C1C(c1ccccc1)c1cc3c(cc1N2)OCO3 (stereo not drawn)

1. > 100 µM
2. 50.5 µM
3. > 100 µM
4. > 53.1 µM

Go through the items and report each one's TGI.
1. CCCCn1c(N)c(-c2nc3ccccc3o2)sc1=S
2. COc1cccc(OC)c1C(=O)OCc1ccccc1
3. Cc1cc(S(=O)(=O)Nc2nc3ccccc3nc2-c2cccc([N+](=O)[O-])c2)c(S)cc1Cl
4. N#Cc1sc2c(c1OC(=O)c1ccccc1)c(=O)n(-c1ccccc1)c(=S)n2-c1ccccc1

1. 47.5 µM
2. > 100 µM
3. > 100 µM
4. 39.4 µM

Please report TGI for every entry that follows.
1. Cn1c(=O)c2c(nc3n2CC(=O)N3CCCCl)n(C)c1=O
2. CCN1CCC(C)OP1(=O)Cc1ccccc1 (stereo not drawn)
3. O=C1/C(=C/c2ccccc2[N+](=O)[O-])Cc2ccccc21

1: > 100 µM; 2: > 100 µM; 3: 4.71 µM

Each molecule below has a reported value. Please supply its TGI.
1. COC1=CC(=O)C2=C(C1=O)[C@H]1CC[C@]3(C)[C@@H](O)CC[C@H]3[C@@H]1CC2
2. COc1c(Br)cc2c(c1OC)C(Br)CCC(Br)(Br)C2=O (stereo not drawn)
3. CN1C(=O)N(C)C2C1NN=c1s/c(=C\c3ccc(C(F)(F)F)cc3)c(=O)n12 (stereo not drawn)
4. CC1=C2[C@@H](CC1)[C@]1(C)O[C@@](c3ccccc3)(C[C@H]1OC(=O)CO)[C@H]2OC(=O)/C=C/c1ccccc1
5. C#C[C@]1(O)CCCC2=CC(=O)CC[C@@]21C
6. CC#CCC1CCC(OCC)=CC1=O (stereo not drawn)
7. Cc1ccc(-c2nnc(-c3nn(-c4ccccc4)c4nc5ccccc5nc34)o2)cc1
8. O=C1OC2(CC1C1(O)C3CC4CC(C3)CC1C4)C1CC3CC(C1)CC2C3 (stereo not drawn)

31.9 µM
1.63 µM
> 100 µM
35.6 µM
> 100 µM
> 100 µM
> 100 µM
> 100 µM
